Ref: ChEMBL document CHEMBL4145541

# Target entity: Cholinesterase (Equus caballus)
# Sequence (P81908 whole entry): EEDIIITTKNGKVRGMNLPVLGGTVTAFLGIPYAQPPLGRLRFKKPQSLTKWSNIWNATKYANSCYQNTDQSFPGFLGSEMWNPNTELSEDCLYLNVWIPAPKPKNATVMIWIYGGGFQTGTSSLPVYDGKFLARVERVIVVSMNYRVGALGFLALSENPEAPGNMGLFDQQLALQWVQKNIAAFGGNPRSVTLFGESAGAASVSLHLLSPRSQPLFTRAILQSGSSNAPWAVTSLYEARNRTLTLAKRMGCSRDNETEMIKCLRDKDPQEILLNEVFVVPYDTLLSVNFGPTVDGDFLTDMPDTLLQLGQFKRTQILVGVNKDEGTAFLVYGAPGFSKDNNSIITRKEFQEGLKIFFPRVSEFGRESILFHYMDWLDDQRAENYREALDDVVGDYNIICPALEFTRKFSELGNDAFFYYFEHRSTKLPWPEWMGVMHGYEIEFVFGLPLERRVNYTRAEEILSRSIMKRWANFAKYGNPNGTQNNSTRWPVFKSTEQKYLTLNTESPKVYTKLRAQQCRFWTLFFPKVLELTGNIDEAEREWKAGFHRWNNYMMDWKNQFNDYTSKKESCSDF
# Procedure details: Inhibition of equine serum BuChE using butyrylthiocholine iodide as substrate preincubated for 20 mins followed by substrate addition and measured after 20 mins by Ellman's method
As shown below, each of these compounds has a reported pIC50 value.
Just so you know, pIC50 here is -log10 of the concentration in molar units; reply with that number alone.

If you can, please state the reported pIC50 value of CC[C@@H]1Oc2c(Br)cc(Cl)cc2C2CC(C)=NN2C1=O (stereo partly drawn) .
4.69

If you can, please state the reported pIC50 value of CCC1Oc2ccc(Cl)cc2C2CC(C)=NN2C1=O (stereo not drawn) .
4.89

If you can, please state the reported pIC50 value of CCC1Oc2c(Br)cc(Br)cc2C2CC(C)=NN2C1=O (stereo not drawn) .
5.53

If you can, please state the reported pIC50 value of CC1=NN2C(=O)C(C)Oc3c(Br)cc(Cl)cc3C2C1 (stereo not drawn) .
4.95

If you can, please state the reported pIC50 value of CC1=NN2C(=O)C(C)Oc3c(Cl)cc(Cl)cc3C2C1 (stereo not drawn) .
5.23

If you can, please state the reported pIC50 value of CC[C@H]1Oc2c(Br)cc(Cl)cc2C2CC(C)=NN2C1=O (stereo partly drawn) .
5.94

If you can, please state the reported pIC50 value of CCC1Oc2c(Cl)cc(Cl)cc2C2CC(C)=NN2C1=O (stereo not drawn) .
5.33

If you can, please state the reported pIC50 value of CCC1Oc2c(Br)cc(Cl)cc2C2CC(C)=NN2C1=O (stereo not drawn) .
5.69

----------
# Procedure details: Cytotoxicity against rat PC12 cells assessed as cell viability up to 50 uM after 24 hrs by MTT assay relative to control
# Details: PC12 cells
Readout type: viability at 24 h

If you can, please state the reported viability at 24 h value of CCC1Oc2c(Br)cc(Cl)cc2C2CC(C)=NN2C1=O (stereo unspecified) .
> 90%

----------
# Procedure details: Cytotoxicity against rat PC12 cells assessed as cell viability up to 50 uM after 24 hrs by MTT assay relative to control
# Details: pc-12
Readout type: viability at 24 h

If you can, please state the reported viability at 24 h value of COc1cc2c(cc1OC)C(=O)C(CC1CCN(Cc3ccccc3)CC1)C2 (stereo unspecified) [DONEPEZIL] .
> 90%

----------
# Target entity: acetylcholinesterase (AChE) (Electrophorus electricus, UniProt O42275)
# Sequence (O42275 whole entry): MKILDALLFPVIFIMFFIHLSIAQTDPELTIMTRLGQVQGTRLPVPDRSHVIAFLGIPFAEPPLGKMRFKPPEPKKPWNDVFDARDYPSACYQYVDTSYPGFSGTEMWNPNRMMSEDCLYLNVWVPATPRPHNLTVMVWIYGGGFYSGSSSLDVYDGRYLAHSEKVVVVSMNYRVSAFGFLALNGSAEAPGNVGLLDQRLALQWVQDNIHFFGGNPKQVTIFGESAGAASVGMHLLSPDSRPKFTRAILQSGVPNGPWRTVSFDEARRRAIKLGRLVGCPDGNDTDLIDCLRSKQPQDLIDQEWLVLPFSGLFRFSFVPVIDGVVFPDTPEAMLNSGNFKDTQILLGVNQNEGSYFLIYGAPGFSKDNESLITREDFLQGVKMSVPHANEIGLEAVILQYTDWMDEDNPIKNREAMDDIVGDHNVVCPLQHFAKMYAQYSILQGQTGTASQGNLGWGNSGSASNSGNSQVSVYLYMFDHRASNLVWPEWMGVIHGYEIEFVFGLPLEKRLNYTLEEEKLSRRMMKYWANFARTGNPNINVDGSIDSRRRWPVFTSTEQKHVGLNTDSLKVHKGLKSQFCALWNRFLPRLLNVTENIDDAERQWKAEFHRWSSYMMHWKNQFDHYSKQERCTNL
# Procedure details: Inhibition of electric eel AChE at 20 uM using acetylthiocholine iodide as substrate preincubated for 20 mins followed by substrate addition and measured after 20 mins by Ellman's method relative to control
# Details: electric eel acetylcholinesterase enzyme, probe acetylthiocholine iodide
Readout type: inhibition at 20 min, 20 µM (%)
Give just the number in %; leave the unit off.

- Compound: "CC1Oc2c(Cl)cc(Cl)cc2C2CC(c3ccco3)=NN2C1=O (stereo unspecified)"
  Target entity: "acetylcholinesterase (AChE) (Electrophorus electricus, UniProt O42275)"
  inhibition at 20 min, 20 µM (%): 28
- Compound: "CC1=NN2C(=O)C(C)Oc3c(Cl)cc(Cl)cc3C2C1 (stereo unspecified)"
  Target entity: "acetylcholinesterase (AChE) (Electrophorus electricus, UniProt O42275)"
  inhibition at 20 min, 20 µM (%): 22
- Compound: "CC1=NN2C(=O)COc3ccc(C)cc3C2C1 (stereo unspecified)"
  Target entity: "acetylcholinesterase (AChE) (Electrophorus electricus, UniProt O42275)"
  inhibition at 20 min, 20 µM (%): 24

If you can, please state the reported inhibition at 20 min, 20 µM value of COc1cccc2c1OC(C)C(=O)N1N=C(C)CC21 (stereo unspecified) .
24

If you can, please state the reported inhibition at 20 min, 20 µM value of CC1=NN2C(=O)COc3c(Br)cc(Cl)cc3C2C1 (stereo unspecified) .
32

If you can, please state the reported inhibition at 20 min, 20 µM value of CC1=NN2C(=O)COc3ccc(Br)cc3C2C1 (stereo unspecified) .
29

----------
# Target entity: Cholinesterase (Equus caballus)
# Procedure details: Mixed-type inhibition of equine serum BuChE using varying levels of butyrylthiocholine iodide as substrate preincubated for 20 mins followed by substrate addition and measured after 20 mins by Lineweaver-Burk plot analysis
# Details: read-out: Ki(app)
Readout type: pKi
Just so you know, pKi here is -log10 of the concentration in molar units; reply with that number alone.

If you can, please state the reported pKi value of CCC1Oc2c(Br)cc(Br)cc2C2CC(C)=NN2C1=O (stereo unspecified) .
5.12

----------
# Target entity: Cholinesterase (Equus caballus)
# Procedure details: Inhibition of equine serum BuChE at 20 uM using butyrylthiocholine iodide as substrate preincubated for 20 mins followed by substrate addition and measured after 20 mins by Ellman's method relative to control
Readout type: inhibition

Example results:
- Molecule: "CC1Oc2ccc(Cl)cc2C2CC(c3ccc(F)cc3)=NN2C1=O (configuration not stated)"
  inhibition: "17%"
- Molecule: "O=C1COc2ccc(Br)cc2C2CC(c3ccco3)=NN12 (configuration not stated)"
  inhibition: "20%"
- Molecule: "CC1Oc2ccc(Br)cc2C2CC(c3ccc(F)cc3)=NN2C1=O (configuration not stated)"
  inhibition: "45%"
- Molecule: "CC1=NN2C(=O)COc3c(Br)cc(Br)cc3C2C1 (configuration not stated)"
  inhibition: "24%"
- Molecule: "COc1cccc2c1OCC(=O)N1N=C(C)CC21 (configuration not stated)"
  inhibition: "2%"
- Molecule: "CC1=NN2C(=O)C(C)Oc3ccc(Br)cc3C2C1 (configuration not stated)"
  inhibition: "18%"
- Molecule: "CC1=NN2C(=O)COc3c(Cl)cc(Cl)cc3C2C1 (configuration not stated)"
  inhibition: "31%"
- Molecule: "CC1=NN2C(=O)C(C)Oc3ccc(Cl)cc3C2C1 (configuration not stated)"
  inhibition: "39%"
- Molecule: "CC1=NN2C(=O)C(C)Oc3c(Br)cc(Br)cc3C2C1 (configuration not stated)"
  inhibition: "11%"
- Molecule: "CC1=NN2C(=O)C(C)Oc3ccc(C)cc3C2C1 (configuration not stated)"
  inhibition: "1%"

If you can, please state the reported inhibition value of CC1=NN2C(=O)COc3c(Br)cc(Cl)cc3C2C1 (configuration not stated) .
18%
